# measurement protocol: Plasma concentration in Sprague-Dawley rat at 50 mg/kg, po after 3 hrs by HPLC-MS/MS analysis
# Type: ADME, organism-based
parameter: concentration at 3 h (ng/mL)
Numbers only, in ng/mL.

Entry COc1ccc(C(=O)c2ccc3c(ccn3Cc3ccc(C(=O)NO)cc3)c2)cc1 — recorded concentration at 3 h = 7.3

###

For each entry below, report its pIC50 value.
Target sequence: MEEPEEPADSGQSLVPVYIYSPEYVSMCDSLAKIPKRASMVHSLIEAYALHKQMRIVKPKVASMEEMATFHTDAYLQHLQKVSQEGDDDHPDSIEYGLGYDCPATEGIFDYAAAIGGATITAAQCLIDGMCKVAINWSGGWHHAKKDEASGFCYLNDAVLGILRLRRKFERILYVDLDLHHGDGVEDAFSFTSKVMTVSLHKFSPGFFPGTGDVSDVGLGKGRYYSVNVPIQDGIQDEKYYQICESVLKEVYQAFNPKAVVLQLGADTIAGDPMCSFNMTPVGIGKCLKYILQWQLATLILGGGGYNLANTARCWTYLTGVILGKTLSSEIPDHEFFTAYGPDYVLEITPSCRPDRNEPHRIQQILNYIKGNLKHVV
Answers are plain numbers, as −log10 of the molar value.

Examples from the recorded data:
COc1ccc(C(=O)c2ccc3c(ccn3Cc3ccc(/C=C/C(=O)NO)cc3)c2)cc1 = 5.55
COc1cc(C(=O)c2ccc3c(ccn3S(=O)(=O)c3cccc(/C=C/C(=O)NO)c3)c2)cc(OC)c1OC = 5.90
COc1ccc(C(=O)c2ccc3c(ccn3S(=O)(=O)c3cccc(/C=C/C(=O)NO)c3)c2)cc1OC = 5.85

Would you be so kind as to report pIC50 for each listed record?
1. COc1cccc(C(=O)c2ccc3c(ccn3S(=O)(=O)c3cccc(/C=C/C(=O)NO)c3)c2)c1
2. O=C(/C=C/c1cccc(S(=O)(=O)n2ccc3cc(C(=O)c4ccc(F)cc4)ccc32)c1)NO
3. O=C(NO)c1ccc(Cn2ccc3cc(C(=O)c4ccc(Cl)cc4)ccc32)cc1
4. COc1ccc(C(=O)c2ccc3c(ccn3Cc3ccc(C(=O)NO)cc3)c2)cc1
5. COc1ccc(C(=O)c2ccc3c(ccn3Cc3ccc(C(=O)NO)cc3)c2)cc1OC

1. 5.45
2. 5.56
3. 5.97
4. 6.19
5. 6.12

Would you be so kind as to report pIC50 for each listed record?
1. Cc1ccc(C(=O)c2ccc3c(ccn3S(=O)(=O)c3cccc(/C=C/C(=O)NO)c3)c2)cc1
2. COc1cc(C(=O)c2ccc3c(ccn3S(=O)(=O)c3ccc(/C=C/C(=O)NO)cc3)c2)cc(OC)c1OC

[5.35, 5.27]

The measurements presented in this section are drawn from ChEMBL document CHEMBL4196108.
